# Target System: Nitric oxide synthase, inducible (Mus musculus)
# Sequence (whole entry): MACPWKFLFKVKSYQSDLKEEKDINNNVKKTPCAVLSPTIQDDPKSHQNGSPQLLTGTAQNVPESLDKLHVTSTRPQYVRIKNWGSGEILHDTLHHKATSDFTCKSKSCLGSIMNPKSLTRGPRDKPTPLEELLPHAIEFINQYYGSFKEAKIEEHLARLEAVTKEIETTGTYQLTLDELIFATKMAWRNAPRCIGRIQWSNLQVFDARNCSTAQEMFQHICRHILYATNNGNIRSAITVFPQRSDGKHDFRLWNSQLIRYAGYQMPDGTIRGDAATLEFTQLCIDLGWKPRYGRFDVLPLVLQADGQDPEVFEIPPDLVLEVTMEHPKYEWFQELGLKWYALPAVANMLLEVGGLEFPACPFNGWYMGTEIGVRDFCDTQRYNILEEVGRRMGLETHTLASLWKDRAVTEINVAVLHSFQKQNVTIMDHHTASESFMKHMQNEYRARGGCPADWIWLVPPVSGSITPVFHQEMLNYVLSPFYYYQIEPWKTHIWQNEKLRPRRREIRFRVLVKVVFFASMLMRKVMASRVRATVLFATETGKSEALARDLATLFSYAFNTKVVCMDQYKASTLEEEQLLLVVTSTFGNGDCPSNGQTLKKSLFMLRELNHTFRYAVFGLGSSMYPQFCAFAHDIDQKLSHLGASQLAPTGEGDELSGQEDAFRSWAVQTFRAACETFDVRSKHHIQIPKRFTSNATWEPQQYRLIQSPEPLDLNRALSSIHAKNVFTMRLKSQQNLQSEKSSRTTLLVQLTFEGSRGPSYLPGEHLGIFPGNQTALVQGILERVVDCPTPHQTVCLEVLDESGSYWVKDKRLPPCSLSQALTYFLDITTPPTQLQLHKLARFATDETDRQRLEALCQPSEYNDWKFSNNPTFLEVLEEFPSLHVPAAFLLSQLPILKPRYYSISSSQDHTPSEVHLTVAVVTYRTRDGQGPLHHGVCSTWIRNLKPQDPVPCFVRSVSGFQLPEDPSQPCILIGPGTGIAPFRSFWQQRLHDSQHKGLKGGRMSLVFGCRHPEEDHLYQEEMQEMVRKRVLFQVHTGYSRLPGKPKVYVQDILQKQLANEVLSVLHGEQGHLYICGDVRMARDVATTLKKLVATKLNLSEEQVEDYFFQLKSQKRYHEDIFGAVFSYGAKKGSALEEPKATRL
# Protocol Notes: Inhibition of mouse recombinant iNOS expressed in Escherichia coli assessed as conversion of [gamma-14C]L-arginine to [14C]L-citrulline at 100 uM by radioactive assay relative to control
# Parameters: scale not given: the % may be the effect or the level left
Response field label takes Satisfied when Activity is strictly below 30% and Not satisfied in all other cases.

compound="COc1ccc(C(=O)C2CN=C3C=CC=C(C)N3C2)cc1OC.[O-][Cl+3]([O-])([O-])O (centres undefined)" target_system="Nitric oxide synthase, inducible (Mus musculus)" group="Not satisfied"
compound="COc1ccc(C(=O)C2CN=C3C=C(C)C=CN3C2)cc1F.[O-][Cl+3]([O-])([O-])O (centres undefined)" target_system="Nitric oxide synthase, inducible (Mus musculus)" group="Not satisfied"
compound=N=C(NCCC[C@H](N)C(=O)O)N[N+](=O)[O-] target_system="Nitric oxide synthase, inducible (Mus musculus)" group=Satisfied
compound=O=[N+]([O-])c1cccc2cn[nH]c12 target_system="Nitric oxide synthase, inducible (Mus musculus)" group=Satisfied
compound="CC1=CC2=NCC(C(=O)c3ccc(-c4ccc(Br)cc4)cc3)CN2C(C)=C1 (centres undefined)" target_system="Nitric oxide synthase, inducible (Mus musculus)" group="Not satisfied"
compound="CC1=CC=CC2=NCC(C(=O)c3ccc(C)cc3)CN12.[O-][Cl+3]([O-])([O-])O (centres undefined)" target_system="Nitric oxide synthase, inducible (Mus musculus)" group="Not satisfied"
compound="CC1=CC=CC2=NCC(C(=O)c3ccc(F)cc3)CN12.[O-][Cl+3]([O-])([O-])O (centres undefined)" target_system="Nitric oxide synthase, inducible (Mus musculus)" group="Not satisfied"
compound="CC1=CC2=NCC(C(=O)c3ccc(-c4ccc(C#N)cc4)cc3)CN2C=C1.Cl (centres undefined)" target_system="Nitric oxide synthase, inducible (Mus musculus)" group=Satisfied

Data provenance is ChEMBL document CHEMBL1152488.
